# test.description: NCI Yeast Anticancer Drug Screen. Data for the wt2 strain (AID 169);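 further: 0% = growth of vehicle-treated yeast cultures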
# run.conditions: S. cerevisiae wt2 strain growth inhibition; at 1.2 µM; stronger effect = higher value
This is part of a sample that, as a whole, favours compounds with a hit. Of some 79,000 tested, about 15% had one in any assay.
growth inhibition values for the compounds below.
// return numeric value only (unit: %, not printed)

Examples with their reported growth inhibition follow.
Cc1cc(OCc2nc(N)nc(N)c2-c2ccc(Cl)c(Cl)c2)ccc1[N+](=O)[O-]
2
c1c[nH]c(CN2CCN(Cc3ncc[nH]3)CC2)n1
-1
CC(CC/C(=N/O)c1ccccc1)(CC/C(=N\O)c1ccccc1)[N+](=O)[O-] (stereo not drawn)
-10

Inquiry: Need growth inhibition, item `COc1ccccc1NC(=O)c1ccc(Cl)cc1`
Reply text: -1

Inquiry: What does the record list as growth inhibition for CC(=O)CC(c1ccccc1)c1c(O)c2ccccc2oc1=O (stereo not drawn) ?
Reply text: -20

Inquiry: Value lookup for growth inhibition; key = `CC(=O)Oc1ccc2c(c1)Cc1cc(N3C(=O)C=CC3=O)ccc1-2`
Reply text: 1

Inquiry: Return reported growth inhibition; argument: `O=C1C(=O)c2cccc([N+](=O)[O-])c2-c2ccccc21`
Reply text: 30

Inquiry: For OC(CC(O)(C(F)(F)F)C(F)(F)F)c1ccc(C(O)CC(O)(C(F)(F)F)C(F)(F)F)cc1 (stereo not drawn) , what is its reported growth inhibition?
Reply text: -1

###

# test.description: NCI Yeast Anticancer Drug Screen. Data for the mlh1 strain (AID 171);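 further: 0% = growth of vehicle-treated control cultures of the same strain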
# run.conditions: S. cerevisiae mlh1 strain growth inhibition; at 100.0 µM; stronger effect = higher value
Compounds without any hit were thinned out: in the full panel of roughly 79,000, 15% have a hit.
endpoint.label: growth inhibition (%)
Kindly answer with a numeric value in %, unit omitted.

Below, each entry is followed by its recorded growth inhibition result.
CC(=O)O/N=C1C=C/C(=C(/C#N)c2ccccc2)C=C/1C
95
O=c1c2ccccc2nc(-c2cccc([N+](=O)[O-])c2)n1O
90
CC(C)C(=O)CC(Sc1ccc(N)cc1)c1ccccc1 (centres undefined)
48
CCCCN(CCC#N)c1ccc(/C=C/c2ccnc3ccccc23)cc1
76
COc1ccc(C(C)c2cc3c(cc2OCC(C)=O)OCO3)cc1 (centres undefined)
76
CC1CCN(CCC(=O)c2ccc([N+](=O)[O-])cc2)CC1
39
CCCCCCCCN1COCC(COc2ccccc2C)OC1 (centres undefined)
99
COC(=O)C1=C(C(=O)OC)CC(n2nnc(C(=O)OC)c2C(=O)OC)=CC1
-3
c1c[nH]c(CN2CCN(Cc3ncc[nH]3)CC2)n1
99
CNC(=S)N/N=C(/C)CCC/C(C)=N/NC(=S)NC
40

Inquiry: Could you tell me which growth inhibition is on file for O=C1C(CCSc2ccccc2)C(=O)N(c2ccccc2)C1c1ccccc1 (centres undefined) ?
Reply text: 90

Inquiry: growth inhibition lookup needed for `CC1(C2CC2)C(C#N)(C#N)C1(C#N)C#N` , thanks.
Reply text: 84

Inquiry: Name the recorded growth inhibition for `CCC(/C=C/c1ccccc1)=N\Nc1ccc(Cl)c(Cl)c1` .
Reply text: 94

Inquiry: Query: growth inhibition; subject: `CC(C)Cc1ncc(CCCN=C(N)N)[nH]c1=O`
Reply text: -1

Inquiry: Reported growth inhibition, compound N#CC1OB(O)c2ccccc21 (centres undefined) : ____
Reply text: -7

Inquiry: Quick one: growth inhibition of NC(CS)C(=O)NCCNc1ccc(NCCNC(=O)C(N)CS)c2c1C(=O)c1c(O)ccc(O)c1C2=O (centres undefined) ?
Reply text: 62

Inquiry: What value of growth inhibition has been reported for the following compound? `COc1ccc2nc3cccc([N+](=O)[O-])c3c(NCCNCCN(C)C)c2c1`
Reply text: 3

Inquiry: Which growth inhibition value is on record for CCC(OC(C)=O)C1CC(C(C)C)CCC1C (centres undefined) ?
Reply text: 54

Inquiry: Please look up its growth inhibition: NC(CCCCCCCCCCCCC(N)C(=O)c1ccccc1)C(=O)c1ccccc1 (centres undefined)
Reply text: 93
